Assay: Selectivity index, ratio of IC50 for antiproliferative activity against mouse BaF3 cells harboring wild type EGFR to IC50 for antiproliferative activity against mouse Ba/F3 EGFR-V769_D770insASV cells
Format: functional
Form field: Ratio IC50 (one value per entry).
Number, no unit, nothing else.

These solved cases illustrate the format of a correct answer.
C=CC(=O)Nc1cccc(N(C(=O)OCc2ccc(F)cc2)c2ccnc(Nc3cnn(C)c3)n2)c1 | 0.22
C=CC(=O)Nc1cc(Nc2ncc(C(=O)OC(C)C)c(-c3cn(C)c4ccccc34)n2)c(OC)cc1N(C)CCN(C)C | 3.17

Tell me the measured Ratio IC50 of `CN(C)C/C=C/C(=O)Nc1cc2c(Nc3ccc(F)c(Cl)c3)ncnc2cc1O[C@H]1CCOC1` , please.
0.08

Now give it for `COc1c(F)cccc1Nc1c(-c2ccncc2OCC(C)(C)OC)[nH]c2c1C(=O)NCC2` too.
25.9

====

Assay: Antiproliferative activity against mouse Ba/F3 EGFR-D770-N771ins_SVD cells incubated for 48 hrs by Cell Titer-Glo assay
Format: functional, cell-based
measure-name: pIC50
In textbook form, pIC50 equals minus log to base ten of the concentration in mol/L.

// returns reported pIC50 for input `COc1c(F)cccc1Nc1c(-c2ccncc2OCC(C)(C)OC)[nH]c2c1C(=O)NCC2`
7.92

====

Tested on: NIH3T3
Assay: Antiproliferative activity against mouse NIH/3T3 cells harboring EGFR-H773-V774ins_NPH incubated for 72 hrs by Cell Titer-Glo assay
Format: functional, cell-based
Conditions: NIH3T3, 72 h
measure-name: pIC50
Friendly reminder that pIC50 comes from taking -log10 of the concentration in mol/L.

State the recorded pIC50 for this entry: C=CC(=O)N[C@H]1C=C(C)c2c(-c3cnc4ccccc4c3)c3c(N)ncnc3n2C1 [CLN-081]
7.18

====

Assay: Selectivity index, ratio of IC50 for antiproliferative activity against mouse BaF3 cells harboring wild type EGFR to IC50 for antiproliferative activity against mouse Ba/F3 EGFR-V769_D770insASV cells
Format: functional
measure-name: Ratio IC50
# answer = number (no unit)

C=CC(=O)Nc1cc(Nc2nccc(-c3cn(C)c4ccccc34)n2)c(OC)cc1N(C)CCN(C)C | 2.02

Quick one: Ratio IC50 for `C#Cc1cccc(Nc2ncnc3cc(OCCOC)c(OCCOC)cc23)c1` ?
0.05

How about `C=CC(=O)Nc1cc(Nc2nccc(Nc3cc(Cl)c(F)cc3C(C)(C)O)n2)c(OC)cc1N1CC[C@@H](N(C)C)C1` ?
0.57

====

Assay: Metabolic stability in human hepatocytes assessed as intrinsic clearance measured per 10^6 cells at 100 uM measured upto 100 mins by LC-MS/MS analysis
Format: ADME, cell-based, Hepatocyte
Conditions: read-out: CLH
measure-name: hepatocyte CLint at 100 µM (µL/min/1e6 cells)
Hi! Could you send only the number? It should be in µL/min/1e6 cells, unit omitted.

Please give the measured hepatocyte CLint at 100 µM for this compound: `C=CC(=O)Nc1cc(Nc2nccc(Nc3cc(Cl)c(F)cc3C(C)(C)O)n2)c(OC)cc1N1CC[C@@H](N(C)C)C1`
2.77

====

Experiment: Antiproliferative activity against mouse Ba/F3 EGFR-V769_D770insASV cells incubated for 72 hrs by CCK-8 assay
Format: functional, cell-based
Known IC50 of a selection of molecules
Write down the numeric answer in nM and omit the unit.

C=CC(=O)N1CCC(Oc2cc3c(Nc4ccc(Cl)c(Cl)c4F)ncnc3cc2OC)CC1 [POZIOTINIB] | 4.8

Here is another molecule to look at.
I have this molecule here, CN(C)C/C=C/C(=O)Nc1cc2c(Nc3ccc(Cl)c(Br)c3)ncnc2cn1 [TH-4000E] , and I need its recorded IC50.
7.6

====

# IC50 per record follows
Test system: BaF3
Assay: Antiproliferative activity against mouse BaF3 cells harboring EGFR-D770-N771insNPG mutant incubated for 3 days by Cell Titer-Glo assay
Assay type: functional, cell-based
Settings: BaF3, 72 h
Numbers only; they are read as nM.

Observe how each entry below is paired with its result.
C=CC(=O)Nc1cc(Nc2ncc(C(=O)OC(C)C)c(-c3cn(C)c4ccccc34)n2)c(OC)cc1N(C)CCN(C)C [MOBOCERTINIB] | 4.3
C#Cc1cccc(Nc2ncnc3cc(OCCOC)c(OCCOC)cc23)c1 [ERLOTINIB] | 2320
CN(C)C/C=C/C(=O)Nc1cc2c(Nc3ccc(F)c(Cl)c3)ncnc2cc1O[C@H]1CCOC1 [AFATINIB] | 40

Proceed to the following item.
Tell me the measured IC50 of C=CC(=O)Nc1cc(Nc2nccc(-c3cn(C)c4ccccc34)n2)c(OC)cc1N(C)CCN(C)C [OSIMERTINIB] , please.
57

Ref: ChEMBL document CHEMBL5365460
